PROCEDURE_TEXT: Automated CellTiter-Glo luminescent cell viability (cytotoxicity) assay, 5 d
CONDITIONS: mouse, mESC-D3 cells (mouse embryonic stem cells)
Recorded IC50 at 5 d, one value per entry.
Your answer is read as µg/mL, so omit the unit and give the number.

O=c1[nH]cc(F)c(=O)[nH]1 0.0627
Cn1c(=O)c2c(ncn2C)n(C)c1=O 138
O=C1NS(=O)(=O)c2ccccc21 393

INPUT: Returns the measured IC50 at 5 d for the input molecule. Input: `C[C@@H]1C[C@H]2[C@@H]3CCC4=CC(=O)C=C[C@]4(C)[C@@]3(F)[C@@H](O)C[C@]2(C)[C@@]1(O)C(=O)CO`
OUTPUT: 18.7

###

PROCEDURE_TEXT: Manual human EST cytotoxicity assay, MTT, 5 d
CONDITIONS: human, hiPSC line ZIPi013-E
ENDPOINT: IC50 at 5 d (µg/mL)
Your answer is read as µg/mL, so omit the unit and give the number.

O=c1[nH]cc(F)c(=O)[nH]1 0.223
Cn1c(=O)c2c(ncn2C)n(C)c1=O 13.3

INPUT: Returns the measured IC50 at 5 d for the input compound. Input: `CC1(C)S[C@@H]2[C@H](NC(=O)Cc3ccccc3)C(=O)N2[C@H]1C(=O)O`
OUTPUT: 750

###

Recorded IC50 at 5 d, one value per entry.
PROCEDURE_TEXT: Manual CellTiter-Glo luminescent cell viability assay (7 d or 5 d)
Type: cell-based, mouse
CONDITIONS: mouse, NIH/3T3 cells, 5 d, in brackets the two individual experiments, read-out: Cytotoxicity assay CTG, 5 d IC50 NIH/3T3
Your answer is read as µg/mL, so omit the unit and give the number.

CC1(C)S[C@@H]2[C@H](NC(=O)Cc3ccccc3)C(=O)N2[C@H]1C(=O)O 992
O=c1[nH]cc(F)c(=O)[nH]1 0.0958

Consider the additional compound presented here.
INPUT: Returns the measured IC50 at 5 d for the input compound. Input: `C[C@@H]1C[C@H]2[C@@H]3CCC4=CC(=O)C=C[C@]4(C)[C@@]3(F)[C@@H](O)C[C@]2(C)[C@@]1(O)C(=O)CO`
OUTPUT: 34.8

###

PROCEDURE_TEXT: Manual MTT cell viability assay, 7 d
Type: cell-based, mouse
CONDITIONS: mouse, mESC-D3 cells; manual; in brackets the two individual experiments; read-out: Cytotoxicity assay MTT, 7 d IC50 mESC-D3
ENDPOINT: IC50 at 7 d (µg/mL)
Your answer is read as µg/mL, so omit the unit and give the number.

Cn1c(=O)c2c(ncn2C)n(C)c1=O 152
O=c1[nH]cc(F)c(=O)[nH]1 0.0395

Consider the additional compound presented here.
INPUT: Returns the measured IC50 at 7 d for the input compound. Input: `C[C@@H]1C[C@H]2[C@@H]3CCC4=CC(=O)C=C[C@]4(C)[C@@]3(F)[C@@H](O)C[C@]2(C)[C@@]1(O)C(=O)CO`
OUTPUT: 23.5

###

Recorded IC50 at 5 d, one value per entry.
PROCEDURE_TEXT: Manual human EST cytotoxicity assay, CellTiter-Glo, 5 d
CONDITIONS: human, hiPSC line ZIPi013-E
Your answer is read as µg/mL, so omit the unit and give the number.

Cn1c(=O)c2c(ncn2C)n(C)c1=O 43.6

Consider the additional compound presented here.
INPUT: Returns the measured IC50 at 5 d for the input compound. Input: `O=c1[nH]cc(F)c(=O)[nH]1`
OUTPUT: 0.0166
